Entries and their LPS % cell toxicity values follow.
# System: primary rat microglia
# test_settings: rat

[
  {
    "compound": "CCN(CC)CCCC(C)Nc1c2ccc(Cl)cc2nc2ccc(OC)cc12 (stereo not drawn)",
    "measurement_units": "%",
    "LPS % cell toxicity": 65
  },
  {
    "compound": "NS(=O)(=O)c1cc2c(cc1Cl)N=C(CSCc1ccccc1)NS2(=O)=O [Benzthiazide]",
    "measurement_units": "%",
    "LPS % cell toxicity": 0
  },
  {
    "compound": "O=C(O)CC(O)(CC(=O)O)C(=O)O",
    "measurement_units": "%",
    "LPS % cell toxicity": 0
  },
  {
    "compound": "CCN1CCCC1CNC(=O)c1cc(S(=O)(=O)CC)c(N)cc1OC (stereo not drawn) [Amisulpride, reference compound]",
    "measurement_units": "%",
    "LPS % cell toxicity": 0
  },
  {
    "compound": "CN(C)CCOC(=O)C(c1ccccc1)C1(O)CCCC1 (stereo not drawn) [Cyclopentolate]",
    "measurement_units": "%",
    "LPS % cell toxicity": 0
  },
  {
    "compound": "CCC(COC(=O)c1cc(OC)c(OC)c(OC)c1)(c1ccccc1)N(C)C (stereo not drawn)",
    "measurement_units": "%",
    "LPS % cell toxicity": 0
  },
  {
    "compound": "COc1cc2nc(N3CCN(C(=O)c4ccco4)CC3)nc(N)c2cc1OC",
    "measurement_units": "%",
    "LPS % cell toxicity": 77
  },
  {
    "compound": "O=C(O)CCc1nc2ccccc2[nH]1",
    "measurement_units": "%",
    "LPS % cell toxicity": 0
  },
  {
    "compound": "OCCN(CCO)c1nc(N2CCCCC2)c2nc(N(CCO)CCO)nc(N3CCCCC3)c2n1",
    "measurement_units": "%",
    "LPS % cell toxicity": 0
  }
]

====

Fibrin % inhibition: recorded values
# Tested on: fibrin-induced microglia activation
# assay_remarks: Image-based assay of fibrin-induced microglia activation (HTS and dose response)
# Type: cell-based, rat
# test_settings: primary microglia HTS, fibrin stimulation, compounds at 10 μM
Counter-ions that a name gives are not always drawn.
observation_type: Fibrin % inhibition (%)

[
  {
    "molecule": "NCC[C@H](O)C(=O)N[C@@H]1C[C@H](N)[C@@H](O[C@H]2O[C@H](CN)[C@@H](O)[C@H](O)[C@H]2O)[C@H](O)[C@H]1O[C@H]1O[C@H](CO)[C@@H](O)[C@H](N)[C@H]1O.O=S(=O)(O)O.O=S(=O)(O)O [Amikacin Sulfate]",
    "observation_type": "Fibrin % inhibition",
    "reported": 3
  },
  {
    "molecule": "Nc1ncn([C@@H]2O[C@H](CO)[C@@H](O)[C@H]2O)c(=O)n1",
    "observation_type": "Fibrin % inhibition",
    "reported": 9
  },
  {
    "molecule": "C=CCc1ccccc1OCC(O)CNC(C)C (centres unmarked) [Alprenolol Hydrochloride, Alprenolol]",
    "observation_type": "Fibrin % inhibition",
    "reported": 1
  },
  {
    "molecule": "NC[C@H]1O[C@H](O[C@H]2[C@H](O)[C@@H](O[C@H]3O[C@H](CO)[C@@H](O)[C@H](N)[C@H]3O)[C@H](N)C[C@@H]2N)[C@H](N)[C@@H](O)[C@@H]1O.O=S(=O)(O)O [Becanamycin Sulfate, Bekanamycin Sulfate]",
    "observation_type": "Fibrin % inhibition",
    "reported": "−10"
  },
  {
    "molecule": "O=S(=O)([O-])CCSSCCS(=O)(=O)[O-].[Na+].[Na+]",
    "observation_type": "Fibrin % inhibition",
    "reported": "−19"
  }
]
